# target: T1, 4H3410-AA
# T1 chain: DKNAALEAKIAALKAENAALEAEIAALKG
# run-description: two-hybrid library CCmax;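 also: natural log of median RNA to DNA barcode read ratio; higher means stronger binding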
# test-settings: mean of both orientations
property-label: interaction score

Q) Entry DKNAALEAKIAALEAKNAALEAKIAALEG [4H3381-AA] : reported interaction score = ?
A) -1.09

Q) Entry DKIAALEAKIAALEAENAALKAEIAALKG [4H2330-AA] : reported interaction score = ?
A) 0.287

Q) Entry DKIAALKAKNAALKAEIAALEAEIAALEG [4H3009-AA] : reported interaction score = ?
A) 0.321

Q) Entry DENAALKAEIAALKAENAALKAEIAALKG [4H1626-AA] : reported interaction score = ?
A) -0.738

Q) Entry DKIAALKAENAALEAEIAALKAEIAALKG [4H2698-AA] : reported interaction score = ?
A) -1.56

1 = DKIAALEAKNAALEAKIAALKAEIAALEG [4H2473-AA]
2 = DKIAALKAKNAALKAEIAALEAKNAALKG [4H3016-AA]
Q) So which one has the bigger interaction score here, 1 or 2 ? Please indicate the selected item by its label.
A) 2
(2: 0.759, 1: -0.429)

I = DENAALEAKNAALKAEIAALEAKIAALKG [4H1478-AA]
II = DENAALKAKIAALKAENAALEAKIAALEG [4H1877-AA]
Q) # min-compare on interaction score between I and II Please indicate the selected item by its label.
A) II
(II: -1.43, I: -1)

I = DENAALKAKIAALEAKNAALEAEIAALKG [4H1842-AA]
II = DKNAALEAEIAALEAKIAALKAKNAALKG [4H3120-AA]
Q) So which one has the bigger interaction score here, I or II ? Please indicate the selected item by its label.
A) I
